Listing: Kd of selected binders
TARGET: T1, human B7-H4 expressed on cells (human, UniProt Q7Z7D3 25-282)
T1 construct: the cell line is named under assay or readout; also called full length human B7-H4 on HEK293 cells; 293T.hB7-H4
T1 sequence: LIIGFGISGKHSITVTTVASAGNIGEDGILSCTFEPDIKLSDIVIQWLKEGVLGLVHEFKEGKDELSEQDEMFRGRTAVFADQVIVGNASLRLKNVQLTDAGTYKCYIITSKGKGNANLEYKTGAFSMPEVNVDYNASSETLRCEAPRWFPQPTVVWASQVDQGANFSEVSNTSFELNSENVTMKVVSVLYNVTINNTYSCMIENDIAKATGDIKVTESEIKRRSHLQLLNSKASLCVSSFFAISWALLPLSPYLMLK
TEST DESCRIPTION: flow cytometry on HEK293.hB7-H4 transfectants, one-site specific binding fit
Report the value in nM with no unit label.

Before answering, review these 3 worked examples.
INSERT INTO assay_data (binder, reported_metric, unit_descriptor, recorded_number) VALUES
  ('humanized 6H3 variant 13 (antibody, V domains shown, also called V13; H2B L2C) VH: EVQLVQSGAEMKKPGASVKVSCKASGYTFTDYYMNWVRQAPGQSLEWMGVINPYNGDTTYNQKFQGRVTVAVDKSATTAYMELSSLRSEDTAVYYCARYPESTYWGQGTLVTVSS VL: DIVMTQTPLSLPVTLGQPASISCRSSQSLVHINGNTYLHWYLQRPGQSPKVLIYKVSNRFSGVPDRFSGSGSGTDFTLKISRVEAEDVGVYFCSQSTHVPLTFGAGTKVEIK', 'Kd', 'nM', 7),
  ('humanized 6H3 variant 10 (antibody, V domains shown, also called V10; H2B L2B) VH: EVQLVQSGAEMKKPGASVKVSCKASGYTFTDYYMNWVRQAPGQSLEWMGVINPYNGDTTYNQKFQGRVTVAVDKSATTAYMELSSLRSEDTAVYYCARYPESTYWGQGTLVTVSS VL: DIVMTQTPLSLPVTLGQPASISCRSSQSLVHINGNTYLHWYQQRPGQSPRVLIYKVSNRFSGVPDRFSGSGSGTDFTLKISRVEAEDVGVYFCSQSTHVPLTFGQGTKVEIK', 'Kd', 'nM', 5.5),
  ('humanized 6H3 variant 9 (antibody, V domains shown, also called V9; 6H3 V9) VH: EVQLVQSGAEVKKPGASVKVSCKASGYTFTDYYMNWVRQAPGQGLEWIGIINPYNGDTSYNQKFKGRVTLTVDKSTSTAYMELSSLRSEDTAVYYCARYPESTYWGQGTLVTVSS VL: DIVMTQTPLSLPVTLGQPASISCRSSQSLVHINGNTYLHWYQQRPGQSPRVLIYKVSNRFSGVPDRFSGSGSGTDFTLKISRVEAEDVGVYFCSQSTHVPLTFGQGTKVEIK', 'Kd', 'nM', 1.8);

Inquiry: # return recorded Kd for entry humanized 6H3 variant 12 (antibody, V domains shown, also called V12; 6H3 V12) VH: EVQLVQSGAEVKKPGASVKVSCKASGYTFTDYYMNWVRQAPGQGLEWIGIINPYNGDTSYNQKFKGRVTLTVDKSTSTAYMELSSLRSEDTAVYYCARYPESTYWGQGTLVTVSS VL: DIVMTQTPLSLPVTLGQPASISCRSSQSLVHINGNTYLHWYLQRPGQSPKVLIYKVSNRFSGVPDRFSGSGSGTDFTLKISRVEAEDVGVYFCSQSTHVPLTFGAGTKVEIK
Reply text: 3.2

Inquiry: Tell me its Kd given humanized 6H3 variant 6 (antibody, V domains shown, also called V6; Variant 6 (antibody)) VH: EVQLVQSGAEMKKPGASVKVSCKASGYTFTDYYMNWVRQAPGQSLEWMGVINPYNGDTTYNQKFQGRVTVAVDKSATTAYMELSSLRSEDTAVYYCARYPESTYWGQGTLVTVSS VL: DVVMTQSPLSLPVTLGQPASISCRSSQSLVHINGNTYLHWYLQRPGQSPKVLIYKVSNRFSGVPDRFSGSGSGTDFTLKISRVEAEDVGVYFCSQSTHVPLTFGGGTKVEIK as the entry.
Reply text: 5
